B1: library; a variant is named by its letters at N, in order (parent)
chain: GCUGUCACCGGUGUAUUACCCUAGUGGUCGACCGGUCUGAUGAGUCUNNNNNNAGACGAAACAGC

Variants of: B1
Assay: FACS-Seq fitted mean relative fluorescence mCherry/BFP without ligand (log10 relative fluorescence); ligand: hypoxanthine (xanthine aptamer); higher = higher reporter protein expression
Conditions: HEK293T, ligand present: no
Give 1 (yes) when the value for FACS-Seq fitted mean (log10) is at least 0.4. Give 0 (no) when it is less.

> print(dat)
    variant.descriptor  label.value
 1              CUUUCA      1 (yes)
 2              AUAUAA      1 (yes)
 3              UCUUGA       0 (no)
 4              AAAUGC       0 (no)
 5              UUCCUG       0 (no)
 6              AACGUG       0 (no)
 7              AGGACC      1 (yes)
 8              AAGUGU       0 (no)
 9              GAGUAU       0 (no)
10              GACUAU       0 (no)
11              UCCCUG      1 (yes)
12              GUUGCA      1 (yes)
13              UAAAUU      1 (yes)
14              AAACUU      1 (yes)
15              GUGGCG       0 (no)
16              ACAGGU      1 (yes)
17              AAGUUU       0 (no)
18              UGCUCA      1 (yes)
19              CAACUA      1 (yes)
20              UAAUCU      1 (yes)
21              AUCUGA      1 (yes)
22              UAUUAA      1 (yes)
23              AGAUGG       0 (no)

This collection of values is drawn from the supplement of paper PMC6757056.
